Listed next: entries and their corresponding pEC50.
System under test: κ-opioid receptor (Kappa) (Homo sapiens (Human))
Sequence (P41145 whole entry): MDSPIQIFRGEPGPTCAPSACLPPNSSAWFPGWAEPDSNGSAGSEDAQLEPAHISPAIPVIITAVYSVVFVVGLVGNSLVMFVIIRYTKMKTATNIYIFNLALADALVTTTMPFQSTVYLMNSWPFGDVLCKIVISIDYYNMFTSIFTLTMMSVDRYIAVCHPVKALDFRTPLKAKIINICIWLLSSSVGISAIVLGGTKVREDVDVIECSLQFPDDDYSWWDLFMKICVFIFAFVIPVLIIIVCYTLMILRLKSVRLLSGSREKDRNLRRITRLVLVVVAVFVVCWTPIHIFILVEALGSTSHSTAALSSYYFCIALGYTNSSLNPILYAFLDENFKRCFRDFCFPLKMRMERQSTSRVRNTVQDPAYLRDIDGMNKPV
Assay method text: In vitro functional assay, HTRF cAMP-Gi in CHO-K1-OPRK1 cells
Assay type: cell-based
Conditions used: read-out: In vitro agonistic effects on k-opioid receptors EC50
pEC50: −log10 of the molar value.
Reported metric: pEC50

Compound	Result
CC(C)C[C@@H](NC(=O)[C@@H](Cc1ccccc1)NC(=O)N(CCN)Cc1cncnc1)C(=O)C[C@H](CCCCN)C(=O)N1CCC(N)(C(=O)O)CC1	9.06
CC(C)C[C@@H](NC(=O)[C@@H](Cc1ccccc1)NC(=O)N(CCN)Cc1cccnc1)C(=O)C[C@H](CCCCN)C(=O)N1CCC(N)(C(=O)O)CC1	9.74
CC(C)C[C@@H](NC(=O)[C@@H](Cc1ccccc1)NC(=O)N(C)C(CN)c1ccccc1)C(=O)C[C@H](CCCCN)C(=O)N1CCC(N)(C(=O)OC(C)C)CC1 (some centres unmarked)	9.20
CC(=O)N(CCCN)C1CCN(C(=O)[C@@H](C)CC(=O)[C@@H](CC(C)C)NC(=O)[C@H](CC(=O)N(CCN)Cc2ccccc2)Cc2ccccc2)CC1	10.05
CC(C)C[C@@H](NC(=O)[C@@H](Cc1ccccc1)NC(=O)N(CCN)Cc1ccc(F)cc1)C(=O)C[C@H](CCCCN)C(=O)N1CCC(N)(C(=O)O)CC1	9.37

Origin of values: patent US20250230129A1
